# tgt: LOX-1 (Glycine max)
measured.quantity: Ki (µM)
# output: bare number, implied unit µM

Measured Ki, CC(C)=CCC/C(C)=C/CC/C(C)=C/COc1ccccc1/C=C/C(=O)c1ccccc1 [Compound 6, (E)-2-O-farnesyl chalcone] : 7

###

# tgt: soybean lipoxygenase-1 (LOX-1) (Glycine max)
# Construct: purchased Sigma-Aldrich, Brazil
# measurement.notes: LOX-1 inhibition, spectrophotometric assay of conjugated diene formed by linoleic acid oxidation
# Format: biochemical
# Experimental: For the in vitro screening to identify the inhibitors of the enzymatic activity of LOX-1, a spectrophotometric assay was employed in order to measure the conjugated diene formed by linoleic acid oxidation. […] In this context, a variety of natural products were evaluated, such as triterpenes, chalcones, casearins, alkaloids, guanidines, and flavonoids. The ability of chalcones 1–6 to act as LOX-1 inhibitors was evaluated according to a method from Ha et al. (2004). […]
pIC50: −log10 of the molar value.
measured.quantity: pIC50

Measured pIC50, O=C(/C=C/c1ccc(O)cc1)c1ccccc1 [Compound 3, (E)-4-hydroxychalcone] : < 4.30

###

Listed here are compounds together with their documented pIC50.
# tgt: soybean lipoxygenase-1 (LOX-1) (Glycine max)
# Construct: purchased Sigma-Aldrich, Brazil
# measurement.notes: LOX-1 inhibition, spectrophotometric assay of conjugated diene formed by linoleic acid oxidation
# Assay type: biochemical
# condition: LOX-1 1 µM, linoleic acid substrate, pH 8.0, 25 °C; mean and standard deviation of three independent experiments; read-out: IC50 for the inhibition of lipoxygenase-1
// returns pIC50 (minus log10 of molar concentration), number only

• CC(C)=CCC/C(C)=C/CC/C(C)=C/COc1ccccc1/C=C/C(=O)c1ccccc1 [Compound 6, (E)-2-O-farnesyl chalcone] = 5.24

Turning now to a further compound:
Measured pIC50, CC(C)=CCC/C(C)=C/COc1cccc(/C=C/C(=O)c2ccccc2)c1 [Compound 5, 3-O-geranyl chalcone] : 4.93

###

# tgt: soybean lipoxygenase-1 (LOX-1) (Glycine max)
# Construct: purchased Sigma-Aldrich, Brazil
# Sequence (P08170 1-839): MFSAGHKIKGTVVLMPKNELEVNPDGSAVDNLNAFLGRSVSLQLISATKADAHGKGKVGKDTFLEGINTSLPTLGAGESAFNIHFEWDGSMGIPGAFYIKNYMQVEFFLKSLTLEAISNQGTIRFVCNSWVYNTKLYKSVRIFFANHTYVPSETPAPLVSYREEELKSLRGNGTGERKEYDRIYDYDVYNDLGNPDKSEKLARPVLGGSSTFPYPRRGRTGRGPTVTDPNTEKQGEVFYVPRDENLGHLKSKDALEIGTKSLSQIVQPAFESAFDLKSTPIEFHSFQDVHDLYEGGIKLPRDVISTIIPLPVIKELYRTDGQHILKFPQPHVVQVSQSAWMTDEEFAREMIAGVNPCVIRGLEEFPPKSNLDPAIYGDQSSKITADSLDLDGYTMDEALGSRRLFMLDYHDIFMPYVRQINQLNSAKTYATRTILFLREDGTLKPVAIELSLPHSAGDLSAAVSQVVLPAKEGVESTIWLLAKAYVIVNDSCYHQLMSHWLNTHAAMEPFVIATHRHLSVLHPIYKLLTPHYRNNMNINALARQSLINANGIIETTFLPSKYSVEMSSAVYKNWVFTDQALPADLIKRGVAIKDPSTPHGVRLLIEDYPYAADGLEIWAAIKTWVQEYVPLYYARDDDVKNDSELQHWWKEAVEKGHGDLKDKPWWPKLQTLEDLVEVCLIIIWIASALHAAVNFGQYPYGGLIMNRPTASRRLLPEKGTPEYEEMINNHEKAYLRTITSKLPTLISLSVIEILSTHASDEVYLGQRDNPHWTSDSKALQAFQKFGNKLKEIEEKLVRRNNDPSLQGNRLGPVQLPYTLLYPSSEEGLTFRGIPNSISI
# measurement.notes: LOX-1 inhibition, spectrophotometric assay of conjugated diene formed by linoleic acid oxidation
# Format: biochemical
# condition: LOX-1 1 µM, linoleic acid substrate, pH 8.0, 25 °C; mean and standard deviation of three independent experiments; read-out: IC50 for the inhibition of lipoxygenase-1
Listed here are compounds together with their documented IC50.

These recorded examples may help you get a feel for the data.
- CC(C)=CCOc1ccccc1/C=C/C(=O)c1ccccc1 [Compound 4, 2-O-prenyl chalcone]: > 50 µM
- O=C(/C=C/c1cccc(O)c1)c1ccccc1 [Compound 2]: > 50 µM

Turning now to a further compound:
Measured IC50, O=C(/C=C/c1ccccc1O)c1ccccc1 [Compound 1] : > 50 µM
